For each record, write down the corresponding z-score of subpopulation abundance.
- Test system: Saccharomyces cerevisiae BY4741 SeMeCo community
- METHOD_NOTES: z-score of subpopulation abundance vs DMSO median, subpopulation auxotrophic for HLUM; higher = larger share of this subpopulation than in DMSO controls
- REPORTED_CONDITIONS: 10 µM; 24 h; SM minimal medium; subpopulation (auxotrophy): HLUM
Counter-ions that a name gives are not always drawn.
Please state the value as a number alone, without comment.

The compound listed as CCNC(=O)[C@@H]1CCCN1C(=O)[C@H](CCCNC(=N)N)NC(=O)[C@H](CC(C)C)NC(=O)[C@@H](CC(C)C)NC(=O)[C@H](Cc1ccc(O)cc1)NC(=O)[C@H](CO)NC(=O)[C@H](Cc1c[nH]c2ccccc12)NC(=O)[C@H](Cc1c[nH]cn1)NC(=O)[C@@H]1CCC(=O)N1 [Leuprolide Acetate] has a reported z-score of subpopulation abundance of 0.75

The compound listed as Nc1ccc(S(=O)(=O)Nc2ccccn2)cc1 [Sulfapyridine] has a reported z-score of subpopulation abundance of -0.89

The compound listed as CO[C@@]1(NC(=O)Cc2cccs2)C(=O)N2C(C(=O)O)=C(COC(N)=O)CS[C@@H]21 [Cefoxitin sodium] has a reported z-score of subpopulation abundance of -0.41

The compound listed as Cc1ncc([N+](=O)[O-])n1CCO [Metronidazole] has a reported z-score of subpopulation abundance of 0.08

The compound listed as Oc1ccc(C2CNCCc3c2cc(O)c(O)c3Cl)cc1 (stereo not given) [Fenoldopam mesylate] has a reported z-score of subpopulation abundance of 1.24

* * *

- System: Saccharomyces cerevisiae BY4741 SeMeCo community
- METHOD_NOTES: z-score of subpopulation abundance vs DMSO median, subpopulation auxotrophic for LM; higher = larger share of this subpopulation than in DMSO controls
- REPORTED_CONDITIONS: 10 µM; 24 h; SM minimal medium; subpopulation (auxotrophy): LM
Where a name gives a salt, the structure may show the parent alone.
PROPERTY_LABEL: z-score of subpopulation abundance
Please state the value as a number alone, without comment.

The compound listed as CC(C)c1c(C(=O)Nc2ccccc2)c(-c2ccccc2)c(-c2ccc(F)cc2)n1CC[C@@H](O)C[C@@H](O)CC(=O)O [Atorvastatin Calcium] has a reported z-score of subpopulation abundance of 2.22

The compound listed as COc1cc2c(cc1OC)C(=O)C(CC1CCN(Cc3ccccc3)CC1)C2 (stereo not drawn) [Donepezil HCl] has a reported z-score of subpopulation abundance of -0.26

The compound listed as CC(=O)O[C@H]1C[C@@H]2CC[C@@H]3[C@H](CC[C@@]4(C)[C@H]3C[C@H]([N+]3(C)CCCCC3)[C@@H]4OC(C)=O)[C@@]2(C)C[C@@H]1N1CCCCC1 [Vecuronium Bromide] has a reported z-score of subpopulation abundance of -1.11

* * *

- Test system: Saccharomyces cerevisiae BY4741 SeMeCo community
- METHOD_NOTES: z-score of subpopulation abundance vs DMSO median, subpopulation auxotrophic for HLUM; higher = larger share of this subpopulation than in DMSO controls
- REPORTED_CONDITIONS: 10 µM; 24 h; SM minimal medium; subpopulation (auxotrophy): HLUM
Structures can show the parent of a compound that is named as a salt.
Entries are grouped by z-score of subpopulation abundance into these classes: group 1: < -0.1; group 2: ≥ -0.1 and < 0.7; group 3: ≥ 0.7

# bin lookup: classify CO[C@H]1C[C@@H]2CC[C@@H](C)[C@@](O)(O2)C(=O)C(=O)N2CCCC[C@H]2C(=O)O[C@H]([C@H](C)C[C@@H]2CC[C@H](n3cnnn3)[C@H](OC)C2)CC(=O)[C@H](C)/C=C(\C)[C@@H](O)[C@@H](OC)C(=O)[C@H](C)C[C@H](C)/C=C/C=C/C=C/1C by its z-score of subpopulation abundance
group 3

# bin lookup: classify COc1cc2c(cc1OC)C(=O)C(CC1CCN(Cc3ccccc3)CC1)C2 (configuration not stated) [Donepezil HCl] by its z-score of subpopulation abundance
group 1

# bin lookup: classify O=C(c1ccccc1)c1ccc2n1CCC2C(=O)O (configuration not stated) by its z-score of subpopulation abundance
group 1

# bin lookup: classify COc1ccnc(C[S+]([O-])c2nc3cc(-n4cccc4)ccc3[nH]2)c1C (configuration not stated) [Ilaprazole sodium] by its z-score of subpopulation abundance
group 3

# bin lookup: classify N[C@@H]1CCCCN(c2c(F)cc3c(=O)c(C(=O)O)cn(C4CC4)c3c2Cl)C1 [Besifloxacin HCl] by its z-score of subpopulation abundance
group 2

# bin lookup: classify COc1cc(Cc2cnc(N)nc2N)cc(OC)c1OC by its z-score of subpopulation abundance
group 1

# bin lookup: classify CC(c1cc2ccccc2s1)N(O)C(N)=O (configuration not stated) by its z-score of subpopulation abundance
group 2

# bin lookup: classify CCCN(CCc1cccs1)[C@H]1CCc2c(O)cccc2C1 by its z-score of subpopulation abundance
group 1

# bin lookup: classify C=CCCCCCCCCC(=O)[O-].C=CCCCCCCCCC(=O)[O-].[Zn+2] [Zinc Undecylenate] by its z-score of subpopulation abundance
group 3

# bin lookup: classify O=c1cc(-c2ccc(O)c(O)c2)oc2cc(O)cc(O)c12 by its z-score of subpopulation abundance
group 1

# bin lookup: classify CNCC[C@H](Oc1cccc2ccccc12)c1cccs1 [Duloxetine HCl] by its z-score of subpopulation abundance
group 2

# bin lookup: classify CC1CCc2cc(F)cc3c(=O)c(C(=O)O)cn1c23 (configuration not stated) by its z-score of subpopulation abundance
group 2

# bin lookup: classify COC(=O)Nc1nc2cc(C(=O)c3ccc(F)cc3)ccc2[nH]1 by its z-score of subpopulation abundance
group 2

# bin lookup: classify CCN(CC)CCNC(=O)c1cc(Cl)c(N)cc1OC [Metoclopramide HCl] by its z-score of subpopulation abundance
group 1

# bin lookup: classify COc1cccc2c1C(=O)c1c(O)c3c(c(O)c1C2=O)C[C@@](O)(C(C)=O)C[C@@H]3O[C@H]1C[C@H](N)[C@H](O)[C@H](C)O1 [Daunorubicin HCl] by its z-score of subpopulation abundance
group 3

# bin lookup: classify CN(C)CCc1c[nH]c2ccc(Cn3cncn3)cc12 [Rizatriptan Benzoate] by its z-score of subpopulation abundance
group 3

* * *

- Tested on: Saccharomyces cerevisiae BY4741 SeMeCo community
- METHOD_NOTES: z-score of subpopulation abundance vs DMSO median, subpopulation auxotrophic for M; higher = larger share of this subpopulation than in DMSO controls
- REPORTED_CONDITIONS: 10 µM; 24 h; SM minimal medium; subpopulation (auxotrophy): M
Structures can show the parent of a compound that is named as a salt.
PROPERTY_LABEL: z-score of subpopulation abundance
Please state the value as a number alone, without comment.

The compound listed as CC(C(=O)O)c1ccc(C(=O)c2cccs2)cc1 (centres undefined) has a reported z-score of subpopulation abundance of -0.68

The compound listed as CC(NCCC(c1ccccc1)c1ccccc1)c1ccccc1 (centres undefined) [Fendiline hydrochloride] has a reported z-score of subpopulation abundance of -1.56

The compound listed as Cc1ccc(Sc2ccccc2N2CCNCC2)c(C)c1 has a reported z-score of subpopulation abundance of -0.9

The compound listed as C[C@H]1O[C@@H](O[C@H]2[C@@H](O)C[C@H](O[C@H]3[C@@H](O)C[C@H](O[C@H]4CC[C@@]5(C)[C@H](CC[C@@H]6[C@@H]5C[C@@H](O)[C@]5(C)[C@@H](C7=CC(=O)OC7)CC[C@]65O)C4)O[C@@H]3C)O[C@@H]2C)C[C@H](O)[C@@H]1O has a reported z-score of subpopulation abundance of -1.12

* * *

- Tested on: Saccharomyces cerevisiae BY4741 SeMeCo community
- METHOD_NOTES: z-score of subpopulation abundance vs DMSO median, subpopulation auxotrophic for HL; higher = larger share of this subpopulation than in DMSO controls
- REPORTED_CONDITIONS: 10 µM; 24 h; SM minimal medium; subpopulation (auxotrophy): HL
Where a name gives a salt, the structure may show the parent alone.
Entries are grouped by z-score of subpopulation abundance into these classes: group A = under -0.4, group B = from -0.4 up to 0.6, group C = 0.6 and over

# bin lookup: classify COc1nc2ccc(Br)cc2cc1[C@@H](c1ccccc1)[C@@](O)(CCN(C)C)c1cccc2ccccc12 [Bedaquiline fumarate] by its z-score of subpopulation abundance
group B

# bin lookup: classify NC(=O)c1ncn([C@@H]2O[C@H](CO)[C@@H](O)[C@H]2O)n1 [Ribavirin] by its z-score of subpopulation abundance
group A

# bin lookup: classify Oc1ccc(Cl)c2cccnc12 [Cloxiquine] by its z-score of subpopulation abundance
group C

# bin lookup: classify C[C@]12CC[C@@H]3c4ccc(O)cc4CC[C@H]3[C@@H]1CC[C@@H]2OC(=O)CCC1CCCC1 [Estradiol Cypionate] by its z-score of subpopulation abundance
group B

# bin lookup: classify COc1ccc2cc(C(=O)O)ccc2c1 [6-Methoxy-2-naphthoic acid] by its z-score of subpopulation abundance
group C

# bin lookup: classify CC[C@H](C)[C@H](N)C1=N[C@H](C(=O)N[C@@H](CC(C)C)C(=O)N[C@H](CCC(=O)O)C(=O)N[C@H](C(=O)N[C@H]2CCCCNC(=O)[C@H](CC(N)=O)NC(=O)[C@@H](CC(=O)O)NC(=O)[C@H](Cc3cnc[nH]3)NC(=O)[C@@H](Cc3ccccc3)NC(=O)[C@H]([C@@H](C)CC)NC(=O)[C@@H](CCCN)NC2=O)[C@@H](C)CC)CS1 [Bacitracin] by its z-score of subpopulation abundance
group C

# bin lookup: classify CC(=O)OC(C)C[N+](C)(C)C (centres undefined) [Methacholine chloride] by its z-score of subpopulation abundance
group B

# bin lookup: classify CCC(=O)Oc1ccc2c(c1)CCC1C2CCC2(C)C(OC(=O)CC)CCC12 (stereo not drawn) [Estradiol dipropionate(17-Beta-Estradiol-3,17-Dipropionate)] by its z-score of subpopulation abundance
group A

# bin lookup: classify Nc1cc(C(Cl)=C(Cl)Cl)c(S(N)(=O)=O)cc1S(N)(=O)=O [Clorsulon] by its z-score of subpopulation abundance
group B

# bin lookup: classify OC(CCCN1CCCCC1)(c1ccccc1)c1ccccc1 [Diphenidol HCl] by its z-score of subpopulation abundance
group A

# bin lookup: classify CCc1c2c(nc3ccc(OC(=O)N4CCC(N5CCCCC5)CC4)cc13)-c1cc3c(c(=O)n1C2)COC(=O)[C@]3(O)CC [Irinotecan HCl Trihydrate] by its z-score of subpopulation abundance
group B

# bin lookup: classify Cc1nc2n(c(=O)c1CCN1CCC(c3noc4cc(F)ccc34)CC1)CCCC2 [Risperidone] by its z-score of subpopulation abundance
group B

# bin lookup: classify O=C1C(=O)c2ccccc2C(O)=C1C1CCC(c2ccc(Cl)cc2)CC1 (centres undefined) [Atovaquone] by its z-score of subpopulation abundance
group C

# bin lookup: classify CCCN[C@H]1CCc2nc(N)sc2C1 [Pramipexole] by its z-score of subpopulation abundance
group C

# bin lookup: classify CN1[C@@H]2CC[C@H]1C[C@@H](OC(=O)c1c[nH]c3ccccc13)C2 [Tropisetron] by its z-score of subpopulation abundance
group C

# bin lookup: classify CC(C)(C)CC(C)(C)c1ccc(OCCOCC[N+](C)(C)Cc2ccccc2)cc1 [Benzethonium Chloride] by its z-score of subpopulation abundance
group B

# bin lookup: classify NC[C@H]1O[C@H](O[C@H]2[C@H](O)[C@@H](O[C@H]3O[C@H](CO)[C@@H](O)[C@H](N)[C@H]3O)[C@H](N)C[C@@H]2N)[C@H](N)C[C@@H]1O [Tobramycin] by its z-score of subpopulation abundance
group A

# bin lookup: classify CCN(CC)CCOC(=O)c1ccc(N)cc1 [Procaine HCl] by its z-score of subpopulation abundance
group A

# bin lookup: classify Nc1ccc(S(=O)(=O)Nc2cnc3ccccc3n2)cc1 [Sulfaquinoxaline sodium] by its z-score of subpopulation abundance
group B

# bin lookup: classify CN[C@@H]1[C@H](O[C@H]2[C@H](O[C@H]3[C@H](O)[C@@H](O)[C@H](N=C(N)N)[C@@H](O)[C@@H]3N=C(N)N)O[C@@H](C)[C@]2(O)C=O)O[C@@H](CO)[C@H](O)[C@H]1O [Streptomycin sulfate] by its z-score of subpopulation abundance
group B

# bin lookup: classify CC[C@H]1OC(=O)[C@H](C)[C@@H](O[C@H]2C[C@@](C)(OC)[C@@H](O)[C@H](C)O2)[C@H](C)[C@@H](O[C@@H]2O[C@H](C)C[C@H](N(C)C)[C@H]2O)[C@](C)(O)C[C@@H](C)C(=O)[C@H](C)[C@@H](O)[C@]1(C)O [Erythromycin thiocyanate] by its z-score of subpopulation abundance
group A

# bin lookup: classify CCCc1cc(C(N)=S)ccn1 [Protionamide] by its z-score of subpopulation abundance
group A

# bin lookup: classify N/C(=N\N=C\c1ccc(Cl)cc1)N/N=C/c1ccc(Cl)cc1 [Robenidine Hydrochoride] by its z-score of subpopulation abundance
group C

# bin lookup: classify COc1cc(Cc2cnc(N)nc2N)cc(OC)c1OC [Trimethoprim] by its z-score of subpopulation abundance
group A

# bin lookup: classify O=C1CCc2ccc(OCCCCN3CCN(c4cccc(Cl)c4Cl)CC3)cc2N1 [Aripiprazole] by its z-score of subpopulation abundance
group C

# bin lookup: classify CC[C@H](C)C(=O)O[C@H]1CCC=C2C=C[C@H](C)[C@H](CC[C@@H]3C[C@@H](O)CC(=O)O3)[C@H]21 [Mevastatin] by its z-score of subpopulation abundance
group C

# bin lookup: classify CC1=C(C(=O)O)N2C(=O)[C@@H](NC(=O)[C@H](N)C3=CCC=CC3)[C@H]2SC1 [Cefradine] by its z-score of subpopulation abundance
group B

# bin lookup: classify N=C(N)NC(=N)N1CCOCC1 [Moroxydine HCl] by its z-score of subpopulation abundance
group B

# bin lookup: classify CC(=O)NO [Acetohydroxamic acid] by its z-score of subpopulation abundance
group B
